TEST SYSTEM: hCA II (Homo sapiens, UniProt P00918)
ASSAY OVERVIEW: In vitro CA inhibition assay, hCA II
Format: biochemical
ASSAY CONTEXT: unit from table title; read-out: hCA II inhibition data in KI
Listing of entries alongside the reported Ki.
RECORDED METRIC: Ki

[[record]]
compound = "C=CCOc1ccc2oc(=S)ccc2c1 [MST-240, 6-(Allyloxy)-2H-chromene-2-thione]"
test_system = "hCA II (Homo sapiens, UniProt P00918)"
recorded_metric = "Ki"
value_reported = "> 200 µM"

[[record]]
compound = "Oc1ccc2oc(=S)ccc2c1 [MST-233, 6-Hydroxy-2H-chromene-2-thione]"
test_system = "hCA II (Homo sapiens, UniProt P00918)"
recorded_metric = "Ki"
value_reported = "> 200 µM"

[[record]]
compound = "CC(C)(C)[Si](C)(C)Oc1ccc2oc(=O)ccc2c1 [MST-230]"
test_system = "hCA II (Homo sapiens, UniProt P00918)"
recorded_metric = "Ki"
value_reported = "> 200 µM"

[[record]]
compound = "Cc1cc(=O)oc2cc(OC3OC(CO)C(O)C(O)C3O)ccc12 (single isomer, unassigned) [MST-203]"
test_system = "hCA II (Homo sapiens, UniProt P00918)"
recorded_metric = "Ki"
value_reported = "77 µM"

[[record]]
compound = "Cc1cc(=O)oc2cc(OC3OC(C)C(O)C(O)C3O)ccc12 (stereo not drawn) [MST-205]"
test_system = "hCA II (Homo sapiens, UniProt P00918)"
recorded_metric = "Ki"
value_reported = "> 100 µM"

[[record]]
compound = "Cc1cc(=O)oc2cc(OC3OC(CO)C(O)C(O)C3O)ccc12 (single isomer, unassigned) [MST-202]"
test_system = "hCA II (Homo sapiens, UniProt P00918)"
recorded_metric = "Ki"
value_reported = "> 100 µM"


====

Record: Ki reported on hCA I (Homo sapiens).
Sequence (P00915 whole entry): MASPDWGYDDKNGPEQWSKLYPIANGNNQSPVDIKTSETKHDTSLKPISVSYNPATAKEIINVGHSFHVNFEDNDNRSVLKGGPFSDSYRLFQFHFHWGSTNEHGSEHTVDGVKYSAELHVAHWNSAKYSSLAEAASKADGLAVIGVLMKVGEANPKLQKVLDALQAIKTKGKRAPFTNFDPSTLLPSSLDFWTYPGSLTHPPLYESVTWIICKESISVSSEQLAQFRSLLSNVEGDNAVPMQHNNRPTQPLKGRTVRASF
RECORDED METRIC: Ki (µM)

[[record]]
compound = "N#Cc1cc2ccc(O)cc2oc1=O [MST-247]"
result_comparator = "="
value_reported = 104

[[record]]
compound = "Cc1cc(=O)oc2cc(OC3OC(C)C(O)C(O)C3O)ccc12 (centres unmarked) [MST-205]"
result_comparator = ">"
value_reported = 100


====

Listing of entries alongside the reported melting point.
RECORDED METRIC: melting point

[[record]]
compound = "Cc1cc(=O)oc2ccc(OCCn3c([N+](=O)[O-])cnc3C)cc12"
recorded_metric = "melting point"
value_reported = "190 to 191 °C"

[[record]]
compound = "O=c1ccc2cc(OCc3cn(-c4ccccc4Cl)nn3)ccc2o1"
recorded_metric = "melting point"
value_reported = "164 to 166 °C"

[[record]]
compound = "Cc1cc(=O)oc2cc(OCCn3c([N+](=O)[O-])cnc3C)ccc12"
recorded_metric = "melting point"
value_reported = "238 to 240 °C"

[[record]]
compound = "C#CCOc1ccc2ccc(=S)oc2c1"
recorded_metric = "melting point"
value_reported = "97 to 101 °C"

[[record]]
compound = "Cc1cc(=O)oc2cc(OC3OCC(O)C(O)C3O)ccc12 (centres unmarked)"
recorded_metric = "melting point"
value_reported = "223 °C"

